- Test system: CAKI-1
- ASSAY_NAME: NCI tumour cell line growth inhibition, 48 h
Activity calls are given as the source filed them. Rule as the data show it: active = GI50 up to about 1.1 µM and inactive = higher.
Parameter call: string, one of active, inactive

compound=O=S1(=O)[C@H](c2ccccc2)c2c(-c3ccccc3)sc(-c3ccccc3)c2[C@@H]1c1ccccc1 class_assignment=inactive
compound="CC(C)(C)c1cc(C#N)c2c(c1)C(=O)OC2(c1ccccc1)c1ccccc1C#N (stereo not drawn)" class_assignment=inactive

Turning to the following compound.
# input Assay result, entry c1ccc(CN2CCC(CNc3ncnc4ccccc34)C2)cc1 (stereo not drawn) — outcome?
# output inactive

---

- Test system: EKVX
- ASSAY_NAME: NCI tumour cell line growth inhibition, 48 h
Active and inactive are the calls of the source. Rule as the data show it: active = GI50 up to about 1.1 µM and inactive = higher.
Parameter call: string, one of Yes = active, No = inactive

compound="CC1=C(C#N)C2C(=C(C)N1)C(N)=Nc1ccccc12 (stereo unspecified)" class_assignment=No
compound="CC(=O)OC1C(O)C(C)OC(OC(=O)C2CCC3C(C2)OC2(CC(OC(=O)/C=C/c4ccccc4)C(C)CO2)C32CO2)C1OC1OC(C)C(O)C(O)C1O (stereo unspecified)" class_assignment=Yes
compound=N=C(N)N/N=C/c1oc(-c2ccc(S(=O)(=O)O)o2)c(-c2ccc(S(=O)(=O)O)o2)c1[N+](=O)[O-] class_assignment=No
compound=CC(=O)NN/C=N/C(C#N)=C(\N)C#N class_assignment=No

Turning to the following compound.
# input Assay result, entry CC(=O)OCCC[C@@H]1C(=C(C)C)CCC2[C@@]1(C)CC[C@@]1(C)C[C@](C)(CCC=C(C)C)CC[C@]21C (stereo partly specified) — outcome?
# output No

---

Listed next: entries and their corresponding GI50.
- Tested on: OVCAR-5
- ASSAY_NAME: NCI tumour cell line growth inhibition, 48 h
The source made the active and inactive calls. No stated cut-off is given here; in the data, active = GI50 up to about 1.1 µM and inactive = higher.

compound="COC(=O)[C@@]12CN(C)[C@@H](C(C)(C)C)N1C(=O)OC2c1ccccc1 (stereo not given in full)" observed_measurement="> 100 µM (inactive)"
compound=Cc1c(C(=O)O)n2c(S)nnc2c2ccccc12 observed_measurement="> 100 µM (inactive)"
compound="COc1ccc2c3c1OC1c4[nH]c5ccccc5c4CC4(O)C(C2)N(C)CCC314 (stereo not given)" observed_measurement="71.6 µM (inactive)"
compound=N#CC(C#N)[C@@H]1CCC=C(Sc2ccccc2)[C@H]1Sc1ccccc1 observed_measurement="5.58 µM (inactive)"
compound="C/C=C(\\C)C(=O)OC1C2C(C)C(=O)OC2C(O)C(C)C2C=CC(=O)C21C (stereo not given)" observed_measurement="19.5 µM (inactive)"
compound="CC(=O)OC/C=C(/CCl)CCC(Br)C(C)(C)Br.CC(=O)OC/C=C(\\CCl)CCC(Br)C(C)(C)Br (stereo not given)" observed_measurement="> 10 µM (inactive)"

# input Report GI50 for CNC(=O)OCc1cc2ccncc2c2c1[nH]c1ccccc12 tested on OVCAR-5.
# output > 77.6 µM (inactive)

# input Report GI50 for CC1=NN(c2cccc(Cl)c2)C2(C1=Cc1cccs1)C(Cl)C(=O)N2c1nc2ccccc2s1 (stereo not given) tested on OVCAR-5.
# output 18.2 µM (inactive)

# input Report GI50 for O=C1NC2(CCCCC2)C2CCCCC=C12 (stereo not given) tested on OVCAR-5.
# output > 100 µM (inactive)

# input Report GI50 for CN(CCCNC(=O)c1cc(-c2ccccc2)nc2ccccc12)CCCNC(=O)c1cc(-c2ccccc2)nc2ccccc12 tested on OVCAR-5.
# output 2.28 µM (inactive)

---

Listed next: entries and their corresponding GI50.
- Tested on: MDA-MB-435
- ASSAY_NAME: NCI tumour cell line growth inhibition, 48 h
Active and inactive are the calls of the source. Rule as the data show it: active = GI50 up to about 1.1 µM and inactive = higher.

# input Can you look up the measured GI50 of CC12Cc3cc4c(cc3C1(c1ccc([N+](=O)[O-])cc1)OCCO2)OCO4 (stereo not given) for me?
# output > 100 µM (inactive)

# input Can you look up the measured GI50 of COC(=O)[C@@]12CN(C)[C@@H](C(C)(C)C)N1C(=O)OC2c1ccccc1 (stereo not given in full) for me?
# output > 100 µM (inactive)

# input Can you look up the measured GI50 of O=C(O)c1nc2ccccc2nc1Nc1ccc(F)cc1 for me?
# output 34.8 µM (inactive)

# input Can you look up the measured GI50 of CCCCC(=O)OC[n+]1ccc(-c2c(COC(=O)NC(C)C)c(COC(=O)NC(C)C)c3n2CCC3)cc1 for me?
# output > 100 µM (inactive)

# input Can you look up the measured GI50 of Nc1ccc(S(=O)(=O)Nc2ccc(Nc3c4ccccc4nc4ccccc34)cc2)cc1 for me?
# output 9.33 µM (inactive)

# input Can you look up the measured GI50 of COc1cc(/C=C2\N=C(c3ccccc3)N(c3nc4c(OC)ccc(OC)c4s3)C2=O)cc(OC)c1OC for me?
# output 31.3 µM (inactive)

# input Can you look up the measured GI50 of Cc1ncc(-c2nnnn2-c2ccccc2)c(C(=O)O)n1 for me?
# output > 100 µM (inactive)

# input Can you look up the measured GI50 of CC(C)CNC1=NCC(C)S1 (stereo not given) for me?
# output > 100 µM (inactive)

# input Can you look up the measured GI50 of N/C(=N\c1ccc(Cl)cc1)NS(=O)(=O)c1cc(Cl)c(Oc2ccc([N+](=O)[O-])cc2Cl)c(Cl)c1 for me?
# output 18.4 µM (inactive)

# input Can you look up the measured GI50 of CC(=O)OC/C=C(/CCl)CCC(Br)C(C)(C)Br.CC(=O)OC/C=C(\CCl)CCC(Br)C(C)(C)Br (stereo not given) for me?
# output > 10 µM (inactive)

# input Can you look up the measured GI50 of COc1cc(/C=C/C(C)=O)ccc1OP(=O)(O)O for me?
# output > 100 µM (inactive)

# input Can you look up the measured GI50 of CCC1OC2C(CC=C(C)C)=C3OC(C)(O)C(C)(CC)C(OC(=O)c4ccccc4)C3=C3OC(=O)C=C1C32 (stereo not given) for me?
# output 36.1 µM (inactive)

# input Can you look up the measured GI50 of Cc1ccc(C2=Nn3c(nc4sc5c(c4c3=O)CCCC5)SC2)cc1 for me?
# output > 100 µM (inactive)

# input Can you look up the measured GI50 of COc1ccc2c3c1OC1c4[nH]c5ccccc5c4CC4(O)C(C2)N(C)CCC314 (stereo not given) for me?
# output 18.1 µM (inactive)

# input Can you look up the measured GI50 of Nc1nc(S)c2c(N)n[nH]c2c1C(=O)Nc1ccc(Cl)cc1 for me?
# output 84.5 µM (inactive)

---

Listed next: entries and their corresponding GI50.
- Tested on: Hs-578T
- ASSAY_NAME: NCI tumour cell line growth inhibition, 48 h
Active and inactive are the calls of the source. Rule as the data show it: active = GI50 up to about 1.1 µM and inactive = higher.

Field: example entries. Status: answers known.
compound=COC(OC)(c1ccccc1)C(I)I metric_name=GI50 observed_measurement="20.1 µM (inactive)"
compound=S=C(N/N=C\C=N/NC(=S)N1CCCCCC1)N1CCCCCC1 metric_name=GI50 observed_measurement="32.8 µM (inactive)"
compound=CC(=O)C(=[N+]=[N-])C(=O)OC(C)(C)C#N metric_name=GI50 observed_measurement="> 10 µM (inactive)"
compound=O=S1(=O)c2ccccc2-c2nccc3ccnc1c23 metric_name=GI50 observed_measurement="32.1 µM (inactive)"
compound=C(=N\c1ccc(-c2nc3ccccc3s2)cc1)/c1ccc[nH]1 metric_name=GI50 observed_measurement="19.7 µM (inactive)"

# input Can you look up the measured GI50 of CCCCCCCC1(N=[N+]=[N-])C(=O)Nc2ccccc2C1=O (centres undefined) for me?
# output 17.5 µM (inactive)

# input Can you look up the measured GI50 of N#CC(C#N)[C@@H]1CCC=C(Sc2ccccc2)[C@H]1Sc1ccccc1 for me?
# output 5.16 µM (inactive)

# input Can you look up the measured GI50 of O=C(OCc1ccccc1)N(CCCCN(CCCNCc1ccccc1)C(=O)OCc1ccccc1)CCCNCc1ccccc1 for me?
# output 1.31 µM (inactive)

# input Can you look up the measured GI50 of FC(F)(F)c1cccc(COCCN2CCN(Cc3cccc(C(F)(F)F)c3)CC2)c1 for me?
# output 19.5 µM (inactive)

---

- System: SN12C
- ASSAY_NAME: NCI tumour cell line growth inhibition, 48 h
Calls of active or inactive are those of the source. Rule as the data show it: active = GI50 up to about 1.1 µM and inactive = higher.
METRIC_NAME: GI50

compound="COc1ccc(/C=C2\\CCC(CN3CCOCC3)C2=O)cc1 (stereo not drawn)" observed_measurement="3.83 µM (inactive)"
compound=CO/N=C(\C)c1ccc(Nc2c3ccccc3nc3occc23)cc1 observed_measurement="1.4 µM (inactive)"

Consider now this further compound.
# input Can you look up the measured GI50 of O=C(c1ccc(Cl)cc1)c1ccc(OCCSCCCCCCCCCCSCCOc2ccc(C(=O)c3ccc(Cl)cc3)cc2)cc1 for me?
# output > 100 µM (inactive)
